# Tested on: L1210 leukemia ip in BDF1 mice, survival T/C
# assay-procedure: NCI In Vivo Anticancer Drug Screen. Data for tumor model L1210 Leukemia (intraperitoneal) in B6D2F1 (BDF1) mice
# settings: endpoint: mean survival time; dose: 100.0 mg/kg/injection; schedule: Q04DX003 (ip); vehicle: Klucel (hydroxypropylcellulose) (HPC); higher = longer survival
Toxic doses and inconclusive results are not listed.
parameter: T/C

Known T/C results, listed for orientation:
Dear colleague, please send me the reported T/C for O=C(COc1ccc(Cl)cc1)Nc1ccc(F)cc1 when you can.
95 % of control

Item O=C(Nc1cc([N+](=O)[O-])ccc1O)Nc1cc([N+](=O)[O-])ccc1F : provide T/C
100 % of control

Respond only with T/C recorded for CC(C)C(C)/C=C/C(C)C1CCC2C3=C(C=CC21C)C1(C)CCCCC1=CC3C1C=C2CCCCC2(C)C2=C1C1CCC(C(C)/C=C/C(C)C(C)C)C1(C)C=C2 (stereo not drawn)
90 % of control

Field: T/C. Fill in for each record below.
1. CCC1C(=O)NC(=O)C1(C)c1ccccc1 (stereo not drawn)
2. NC(=O)CC(NC(=O)OCc1ccccc1)C(N)=O (stereo not drawn)

101 % of control
93 % of control
